Experiment: self-splicing fitness, log relative to wild type (ln ratio); higher = more splicing; Tetrahymena group I intron in knt gene, E. coli kanamycin selection, DiMSum; sequences stand for … in CUCUCU…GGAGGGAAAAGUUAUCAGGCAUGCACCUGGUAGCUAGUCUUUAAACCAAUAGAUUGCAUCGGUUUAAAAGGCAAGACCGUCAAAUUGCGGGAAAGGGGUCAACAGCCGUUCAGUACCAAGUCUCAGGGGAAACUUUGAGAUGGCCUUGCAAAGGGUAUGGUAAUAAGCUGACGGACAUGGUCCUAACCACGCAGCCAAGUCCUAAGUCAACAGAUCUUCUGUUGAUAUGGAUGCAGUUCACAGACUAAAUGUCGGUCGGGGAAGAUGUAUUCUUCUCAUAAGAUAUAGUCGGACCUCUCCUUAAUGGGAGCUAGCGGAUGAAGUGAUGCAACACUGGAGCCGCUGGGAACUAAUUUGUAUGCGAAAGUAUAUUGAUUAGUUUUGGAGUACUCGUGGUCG;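 further: selection with 25 µg/mL kanamycin versus none on LB agar overnight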
Settings: 30 °C
Hi there, I'd appreciate the recorded self-splicing fitness (ln) for every entry that follows.
Give only the figure.

Using known records, supply self-splicing fitness (ln) for AUUGAGCAAUAUUACGGGCC
-2.96

Using known records, supply self-splicing fitness (ln) for AAGUAGCAAUAUUACGUUGU
-2.95

Using known records, supply self-splicing fitness (ln) for CCCGAGCAAUAUUACGGGGU
-2.92

Using known records, supply self-splicing fitness (ln) for AUUUAGCAAUAUUACGCAGU
-3

Using known records, supply self-splicing fitness (ln) for UCCCAGCAAUAUUACGUAAU
-2.01

Using known records, supply self-splicing fitness (ln) for CUCCAGCAAUAUUACGUAUC
-3.01

Using known records, supply self-splicing fitness (ln) for UCCGAGCAAUAUUACGCUGA
-2.04

---

Hi there, I'd appreciate the recorded self-splicing fitness (ln) for every entry that follows.
Assay: self-splicing fitness, log relative to wild type (ln ratio); higher = more splicing; Tetrahymena group I intron in knt gene, E. coli kanamycin selection, DiMSum; sequences stand for … in CUCUCU…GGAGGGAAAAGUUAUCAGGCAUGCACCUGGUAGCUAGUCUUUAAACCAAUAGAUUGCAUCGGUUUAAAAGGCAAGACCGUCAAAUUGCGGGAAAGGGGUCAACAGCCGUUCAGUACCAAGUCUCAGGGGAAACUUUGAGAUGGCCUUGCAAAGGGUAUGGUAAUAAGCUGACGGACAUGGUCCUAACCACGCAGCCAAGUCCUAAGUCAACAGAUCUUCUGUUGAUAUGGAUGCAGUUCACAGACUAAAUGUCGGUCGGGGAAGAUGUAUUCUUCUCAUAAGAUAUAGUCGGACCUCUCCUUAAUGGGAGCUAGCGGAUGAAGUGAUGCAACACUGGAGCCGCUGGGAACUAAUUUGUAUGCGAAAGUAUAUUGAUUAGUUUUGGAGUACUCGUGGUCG
Details: 30 °C
Give only the figure.

Using known records, supply self-splicing fitness (ln) for ACACAGCAAUAUUACGUUCU
-0.986

Using known records, supply self-splicing fitness (ln) for CUGGAGCAAUAUUACGGGGC
-4.12

Using known records, supply self-splicing fitness (ln) for GAGUAGCAAUAUUACGAUUU
-0.387

---

Test: self-splicing fitness, log relative to wild type (ln ratio); higher = more splicing; Tetrahymena group I intron in knt gene, E. coli kanamycin selection, DiMSum; sequences stand for … in CUCUCU…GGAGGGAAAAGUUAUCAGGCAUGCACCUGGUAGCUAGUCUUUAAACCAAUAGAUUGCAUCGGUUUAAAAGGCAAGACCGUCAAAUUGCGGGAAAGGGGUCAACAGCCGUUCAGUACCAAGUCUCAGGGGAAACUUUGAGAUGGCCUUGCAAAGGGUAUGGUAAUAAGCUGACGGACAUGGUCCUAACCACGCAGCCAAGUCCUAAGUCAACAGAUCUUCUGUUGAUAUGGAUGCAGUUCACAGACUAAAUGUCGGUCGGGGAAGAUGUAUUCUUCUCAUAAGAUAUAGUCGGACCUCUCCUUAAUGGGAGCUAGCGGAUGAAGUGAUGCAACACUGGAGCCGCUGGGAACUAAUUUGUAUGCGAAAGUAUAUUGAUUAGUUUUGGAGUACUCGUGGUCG
Conditions: 37 °C
I would appreciate it if you labelled entries 1 (yes) when self-splicing fitness (ln) is -1 or higher, otherwise 0 (no).

Hi, just wondering whether AUAAAGCAAUAUUACGUGUG shows self-splicing fitness (ln) of -1 or higher.
1 (yes)

Hi, just wondering whether CGCUAGCAAUAUUACGCUGG shows self-splicing fitness (ln) of -1 or higher.
0 (no)

Hi, just wondering whether AUUAAGCAAUAUUACGAAAU shows self-splicing fitness (ln) of -1 or higher.
0 (no)

Hi, just wondering whether GAGUAGCAAUAUUACGAGAC shows self-splicing fitness (ln) of -1 or higher.
0 (no)

Hi, just wondering whether GUAUAGCAAUAUUACGAGCU shows self-splicing fitness (ln) of -1 or higher.
0 (no)

Hi, just wondering whether AGGGAGCAAUAUUACGGAUG shows self-splicing fitness (ln) of -1 or higher.
0 (no)

Hi, just wondering whether GACCAGCAAUAUUACGCUGU shows self-splicing fitness (ln) of -1 or higher.
0 (no)

Hi, just wondering whether CAUCAGCAAUAUUACGAAUC shows self-splicing fitness (ln) of -1 or higher.
0 (no)

Hi, just wondering whether UUACAGCAAUAUUACGCCGG shows self-splicing fitness (ln) of -1 or higher.
1 (yes)

Hi, just wondering whether AACCAGCAAUAUUACGGGCU shows self-splicing fitness (ln) of -1 or higher.
0 (no)

Hi, just wondering whether CGAUAGCAAUAUUACGCUGA shows self-splicing fitness (ln) of -1 or higher.
0 (no)

Hi, just wondering whether UUCUAGCAAUAUUACGGCAG shows self-splicing fitness (ln) of -1 or higher.
1 (yes)

Hi, just wondering whether AGUUAGCAAUAUUACGAACU shows self-splicing fitness (ln) of -1 or higher.
0 (no)

Hi, just wondering whether CAAGAGCAAUAUUACGAUAA shows self-splicing fitness (ln) of -1 or higher.
0 (no)

Hi, just wondering whether GCUAAGCAAUAUUACGUAAG shows self-splicing fitness (ln) of -1 or higher.
1 (yes)

Hi, just wondering whether GCGAAGCAAUAUUACGUCAG shows self-splicing fitness (ln) of -1 or higher.
0 (no)

---

Hi there, I'd appreciate the recorded self-splicing fitness (ln) for every entry that follows.
Assay: self-splicing fitness, log relative to wild type (ln ratio); higher = more splicing; Tetrahymena group I intron in knt gene, E. coli kanamycin selection, DiMSum; sequences stand for … in CUCUCU…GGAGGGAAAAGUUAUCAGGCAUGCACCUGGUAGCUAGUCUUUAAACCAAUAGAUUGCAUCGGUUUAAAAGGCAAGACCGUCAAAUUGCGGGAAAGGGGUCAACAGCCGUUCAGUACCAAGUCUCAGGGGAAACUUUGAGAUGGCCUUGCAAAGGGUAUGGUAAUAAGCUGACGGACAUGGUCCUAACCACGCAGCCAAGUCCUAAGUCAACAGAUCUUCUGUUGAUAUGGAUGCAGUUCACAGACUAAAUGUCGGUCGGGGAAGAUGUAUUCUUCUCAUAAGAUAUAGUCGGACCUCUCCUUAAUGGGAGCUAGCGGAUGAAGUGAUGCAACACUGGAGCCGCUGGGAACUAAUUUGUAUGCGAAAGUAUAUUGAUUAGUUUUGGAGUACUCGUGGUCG
Conditions: 37 °C
Give only the figure.

Using known records, supply self-splicing fitness (ln) for AUGUAGCAAUAUUACGCGCG
-0.464

Using known records, supply self-splicing fitness (ln) for CGACAGCAAUAUUACGGUUC
-2.24

Using known records, supply self-splicing fitness (ln) for UACUAGCAAUAUUACGAUAG
-0.923

Using known records, supply self-splicing fitness (ln) for UAUUAGCAAUAUUACGCCCU
0.526

Using known records, supply self-splicing fitness (ln) for AGAUAGCAAUAUUACGCUUA
-1.08

Using known records, supply self-splicing fitness (ln) for CGACAGCAAUAUUACGUGUA
-1.59

Using known records, supply self-splicing fitness (ln) for CCUCAGCAAUAUUACGAAGU
-1.88

Using known records, supply self-splicing fitness (ln) for GCGAAGCAAUAUUACGACAA
-0.672

Using known records, supply self-splicing fitness (ln) for GUGCAGCAAUAUUACGAGAU
-1.98

Using known records, supply self-splicing fitness (ln) for AGAGAGCAAUAUUACGUGUU
-3.64

Using known records, supply self-splicing fitness (ln) for CUACAGCAAUAUUACGAAAG
-0.755

Using known records, supply self-splicing fitness (ln) for GAAGAGCAAUAUUACGGCUU
0.407

Using known records, supply self-splicing fitness (ln) for GUCUAGCAAUAUUACGUGCG
-1.27

Using known records, supply self-splicing fitness (ln) for AAAUAGCAAUAUUACGCGUC
-0.755

Using known records, supply self-splicing fitness (ln) for CCCCAGCAAUAUUACGAAAC
-1.89

Using known records, supply self-splicing fitness (ln) for AUAGAGCAAUAUUACGUAUC
-2.16

Using known records, supply self-splicing fitness (ln) for UGGUAGCAAUAUUACGUUGU
-2.86

Using known records, supply self-splicing fitness (ln) for AGUAAGCAAUAUUACGCGAA
-1.42

Using known records, supply self-splicing fitness (ln) for AGGAAGCAAUAUUACGAGCG
-1.08

Using known records, supply self-splicing fitness (ln) for UUAUAGCAAUAUUACGCUCC
0.501

Using known records, supply self-splicing fitness (ln) for ACUUAGCAAUAUUACGUUAU
-1.31

Using known records, supply self-splicing fitness (ln) for UGUCAGCAAUAUUACGAAAU
-1.18

Using known records, supply self-splicing fitness (ln) for CUGAAGCAAUAUUACGAAGA
-0.888

Using known records, supply self-splicing fitness (ln) for CUAGAGCAAUAUUACGUUCG
-0.578

Using known records, supply self-splicing fitness (ln) for AUGUAGCAAUAUUACGAGGG
-1.18

Using known records, supply self-splicing fitness (ln) for UUUGAGCAAUAUUACGGCCA
-1.17

Using known records, supply self-splicing fitness (ln) for UAUCAGCAAUAUUACGCGUA
0.0959

Using known records, supply self-splicing fitness (ln) for CCCCAGCAAUAUUACGGUUG
-1.5

Using known records, supply self-splicing fitness (ln) for UCCAAGCAAUAUUACGGUGC
-2.44

Using known records, supply self-splicing fitness (ln) for AAUGAGCAAUAUUACGUCCA
-2.27

Using known records, supply self-splicing fitness (ln) for GGAUAGCAAUAUUACGAGCU
-0.744

Using known records, supply self-splicing fitness (ln) for CUCUAGCAAUAUUACGGGAA
-1.11

Using known records, supply self-splicing fitness (ln) for GAAUAGCAAUAUUACGGGAG
-3.35

Using known records, supply self-splicing fitness (ln) for ACUAAGCAAUAUUACGGCAU
-0.563

Using known records, supply self-splicing fitness (ln) for UCCCAGCAAUAUUACGCUUA
-0.458

Using known records, supply self-splicing fitness (ln) for ACUGAGCAAUAUUACGCAGU
-1.35

Using known records, supply self-splicing fitness (ln) for CAUCAGCAAUAUUACGGAUC
0.216

Using known records, supply self-splicing fitness (ln) for UCCGAGCAAUAUUACGAUGU
-1.87

Using known records, supply self-splicing fitness (ln) for AGCAAGCAAUAUUACGACUC
-0.865

Using known records, supply self-splicing fitness (ln) for CAGCAGCAAUAUUACGAGGU
-2.42

Using known records, supply self-splicing fitness (ln) for ACAUAGCAAUAUUACGUCGC
-1.69

Using known records, supply self-splicing fitness (ln) for CGCAAGCAAUAUUACGUCAC
-2.12

Using known records, supply self-splicing fitness (ln) for UGGUAGCAAUAUUACGCAGG
-2.82

Using known records, supply self-splicing fitness (ln) for CGGAAGCAAUAUUACGGCUU
-2.75

Using known records, supply self-splicing fitness (ln) for GGGUAGCAAUAUUACGCUAG
-1.24

Using known records, supply self-splicing fitness (ln) for ACAUAGCAAUAUUACGGCUC
-0.28

Using known records, supply self-splicing fitness (ln) for GUUAAGCAAUAUUACGGAGA
-2.57

Using known records, supply self-splicing fitness (ln) for GAAAAGCAAUAUUACGCAUC
-2.78

Using known records, supply self-splicing fitness (ln) for UCUUAGCAAUAUUACGGUUA
-2.37

Using known records, supply self-splicing fitness (ln) for ACCCAGCAAUAUUACGCUUG
-2.43

Using known records, supply self-splicing fitness (ln) for UCUUAGCAAUAUUACGAUAA
-2.27

Using known records, supply self-splicing fitness (ln) for UUGUAGCAAUAUUACGGUGG
-1.28

Using known records, supply self-splicing fitness (ln) for CUCCAGCAAUAUUACGGGCG
-1.2

Using known records, supply self-splicing fitness (ln) for CUACAGCAAUAUUACGGCUA
-3.02

Using known records, supply self-splicing fitness (ln) for GGACAGCAAUAUUACGGUCA
0.817

Using known records, supply self-splicing fitness (ln) for UUCUAGCAAUAUUACGCUAG
-2.42

Using known records, supply self-splicing fitness (ln) for GUGUAGCAAUAUUACGAAAA
-1.51
